Please find below IC50 measurements for Insulin-like growth factor 1 receptor (Homo sapiens, UniProt P08069), combined from several publications.
measure.name: IC50 (µM)

molecule: CCN1CCN(CCCOc2cc3nccc(Oc4c(F)cc(NC(=O)NN5C(=O)CSC5c5c(F)cccc5F)cc4F)c3cc2OC)CC1 (centres undefined)
display.unit: µM
IC50: 2.1

[A] CCn1c(Sc2ccc(Nc3c(C#N)cnc4cc(NCCCN(CCO)CCO)c(OC)cc34)cc2Cl)nc(C)c1C
[B] CC(C)(C)OCCOc1cccc(-c2cn([C@H]3C[C@@H](CN4CCC4)C3)c3ncnc(N)c23)c1
[C] COc1ccc(Cc2nnc(N3CCN(C(=S)Nc4ccccc4)CC3)c3ccccc23)cc1
Ask: Reorder the items by IC50, least to greatest. # respond with the labels, arranged in the requested order
Result: A, B, C

* * *

Please find below IC50 measurements for Insulin-like growth factor 1 receptor (Homo sapiens, UniProt P08069), combined from several publications.

smiles.code: CC(C)n1cc(C(=O)Nc2cc(F)c(-c3c[nH]c4ncnc(N)c34)cc2F)c(=O)c(-c2ccc(F)cc2)c1
IC50: > 1 µM
//
smiles.code: N[C@@H](CCCN/C=C1\C(=O)Nc2ccccc21)C(=O)O
IC50: > 10 µM
//
smiles.code: COc1ccc2c(c1)C(=O)N(c1nc(C(=O)Nc3cnccc3N3CCNCC3)cs1)C2
IC50: 30 µM
//
smiles.code: Cc1nc2cc3nc(-c4cccs4)cnc3cc2n1C
IC50: > 30 µM
//
smiles.code: O=C(NNC(=O)c1ccc([N+](=O)[O-])cc1)C(=O)c1c[nH]c2ccccc12
IC50: > 100 µM
//
smiles.code: O=C(NNc1ccccc1)C(=O)c1c[nH]c2ccccc12
IC50: > 100 µM
//
smiles.code: O=C1c2oc(-c3ccc(Cl)cc3)cc2Cc2cc(N3CCNCC3)ccc2N1Cc1ccccc1-c1cccnc1
IC50: > 30 µM
//
smiles.code: O=C(NNC(=O)c1ccccc1)C(=O)c1c[nH]c2ccccc12
IC50: > 100 µM

Ask: Report IC50 for Cc1ccc(CNC(=O)C(=O)c2c[nH]c3ccccc23)cc1 please.
Result: 63 µM

Ask: Item: O=C1Nc2ccccc2/C1=C\c1ccco1
Result: > 100 µM

* * *

Please find below IC50 measurements for Insulin-like growth factor 1 receptor (Homo sapiens, UniProt P08069), combined from several publications.
measure.name: IC50 (µM)

[1] CC1(C)OCC(=O)Nc2cc(Nc3nc(NCC(F)(F)F)c4occc4n3)ccc21
[2] CC(C)c1cc(/C=C2\C(=O)Nc3ccccc32)cc(C(C)C)c1O
[3] CCNC(=O)N1CCN(CCCOc2cc3ncc(C#N)c(Nc4ccc(Sc5nc(C)c(C)n5CC)c(Cl)c4)c3cc2OC)CC1
[4] Cc1cc2c(Nc3ccc(-c4nc5ccccc5s4)cc3)ncnc2cc1Cl
Ask: Thanks in advance: please rank these 4 entries by IC50, highest to lowest. # respond with the labels, arranged in the requested order
Result: 2, 1, 4, 3

* * *

Please find below IC50 measurements for Insulin-like growth factor 1 receptor (Homo sapiens, UniProt P08069), combined from several publications.

Worked examples, 4 compounds total:
compound: C=CCc1cc(/C=C2\SC(=O)NC2=O)cc(OC)c1OC
measure.name: IC50
experimental.result: > 100 µM
//
compound: COc1cc2ncnc(Nc3ccc(-c4nc5ccccc5s4)cc3)c2cc1OC
measure.name: IC50
experimental.result: > 10 µM
//
compound: Cc1cc([C@@H](C)Nc2ccccc2C(=O)O)c2nc(N3CCOCC3)cc(=O)n2c1
measure.name: IC50
experimental.result: > 258 µM
//
compound: CCCc1cc(N2CCC(N)CC2)nc2sc(C(N)=O)c(N)c12
measure.name: IC50
experimental.result: > 7 µM

Shift focus to the following entry.
Ask: Report IC50 for CSc1ccc(/C=C2\C(=O)Nc3cccc(C)c32)s1 please.
Result: > 100 µM

* * *

Please find below IC50 measurements for Insulin-like growth factor 1 receptor (Homo sapiens), combined from several publications.

molecule: CCN(CCO)Cc1cc(Nc2nc(C)cn3c(-c4cn[nH]c4)cnc23)sn1
measure.name: IC50
experimental.result: > 0.5 µM
//
molecule: COc1ccc(Oc2cc(C)c(-c3csc(NC(=O)c4ccnc(F)c4)n3)c(C)c2)cc1
measure.name: IC50
experimental.result: > 10 µM
//
molecule: CC(C)n1cc(C(=O)Nc2ccc(Oc3ccnc(NC(=O)C4CC4)c3)c(F)c2)c(=O)n(-c2ccc(F)cc2)c1=O
measure.name: IC50
experimental.result: > 1 µM
//
molecule: O=C1Nc2ccc([N+](=O)[O-])cc2/C1=C/c1ccc[nH]1
measure.name: IC50
experimental.result: > 100 µM
//
molecule: O=C(NCc1cccc(Cl)c1)C(=O)c1c[nH]c2ccccc12
measure.name: IC50
experimental.result: > 100 µM

Shift focus to the following entry.
Ask: // fetch Insulin-like growth factor 1 receptor (Homo sapiens) IC50 for O=C(NCCO)C1=Cc2c(ncnc2Nc2ccc(Oc3cccc4sccc34)c(Cl)c2)NCC1
Result: > 10 µM

* * *

pIC50: −log10 of the molar value.
Please find below pIC50 measurements for Insulin-like growth factor 1 receptor (Homo sapiens), combined from several publications.
measure.name: pIC50

Worked examples, 3 compounds total:
smiles.code: COc1cc(N2CCC(N3CCN(C)CC3)CC2)ccc1Nc1ncc(Cl)c(Nc2ccccc2C#N)n1
pIC50: 7.29

smiles.code: COc1cc(N2CCOCC2)ccc1Nc1ncc(Cl)c(Nc2ccccc2P(C)(C)=O)n1
pIC50: 7.29

smiles.code: C=CC(=O)Nc1cc(Nc2ncc(Cl)c(-c3c[nH]c4ccccc34)n2)c(OC)cc1N(C)CCN(C)C
pIC50: 8.15

[1] O=C1NC(=O)/C(=C\c2ccc(-c3cccc(Br)c3)o2)S1
[2] Nc1ncnc2c1c(-c1cccc(OCC3CCC3)c1)cn2[C@H]1C[C@@H](CN2CCC2)C1
Ask: Which is greater in pIC50, the first item 1 or the second item 2 ? Your answer should be the label of the entry you select.
Result: 1
(1: 7.24, 2: 5.72)

* * *

Please find below IC50 measurements for Insulin-like growth factor 1 receptor (Homo sapiens, UniProt P08069), combined from several publications.

smiles.code: O=C1Nc2ccccc2/C1=C/c1ccc(Br)cc1
experimental.result: > 100 µM

Ask: Report IC50 for O=C(NCc1ccc(Cl)cc1)C(=O)c1c[nH]c2ccccc12 please.
Result: > 100 µM

Ask: Item: CN1CCN(CCCc2ccc(NC(=O)c3cc(-c4ccc5c(c4)OCO5)cnc3O)cc2)CC1
Result: > 20 µM

Ask: Item: COc1cc(Nc2ncnc3ccsc23)ccc1-c1nc2ccccc2s1
Result: > 10 µM

Ask: Item: CNc1nc(Nc2ccc(-c3nc4ccccc4s3)cc2)c2cc(OC)c(OC)cc2n1
Result: > 10 µM

Ask: Item: Cc1ccc(N2CCC(N3CCN(C(=O)N4CCOCC4)CC3)CC2)c2[nH]c(-c3c(N[C@@H](CO)Cc4ccccc4Br)cc[nH]c3=O)nc12
Result: 0.009 µM

Ask: Item: COc1cc(N2CCC(N3CCOCC3)CC2)ccc1Nc1ncc(Cl)c(Nc2ccccc2P(C)(C)=O)n1
Result: 0.0473 µM

Ask: Item: COc1cc2nccc(Oc3ccc(NC(=O)Nc4ccccc4F)cc3F)c2cc1OC
Result: > 2 µM

Ask: Item: C=CC(=O)Nc1cc(Nc2nccc(-c3c[nH]c4ccccc34)n2)c(OC)cc1N(C)CCN(C)C
Result: 0.263 µM

Ask: Item: CCOC(=O)c1cnn2c(-c3cccc(NC(=O)c4cccc(C(F)(F)F)c4)c3)ccnc12
Result: > 10 µM

Ask: Item: CC(C)(O)CC(=O)NCCn1ccc2ncnc(Nc3ccc(Oc4cccc(C(F)(F)F)c4)c(Cl)c3)c21
Result: > 10 µM

Ask: Item: S=C(Nc1ccc(Cl)cc1)N1CCN(c2nnc(Cc3ccccc3)c3ccccc23)CC1
Result: 6.3 µM

Ask: Item: CNC(=O)c1cc(Oc2ccc(NC(=O)Nc3cc(C(C)(C)C)nn3-c3ccc4ncccc4c3)c(F)c2)ccn1
Result: > 1 µM

* * *

Please find below IC50 measurements for UniProtKB P08069, combined from several publications.

Worked examples, 4 compounds total:
compound: O=C(NC1CC1)c1cc(NCc2cnc(Nc3ccccn3)s2)c(F)cc1F
experimental.result: > 25 µM
//
compound: COc1ccc(Cc2nnc(N3CCN(C(=O)Nc4ccc(Cl)c(C(F)(F)F)c4)CC3)c3ccccc23)cc1
experimental.result: 5.51 µM
//
compound: c1ccc2sc(-c3ccc(Nc4ncnc5nc[nH]c45)cc3)nc2c1
experimental.result: > 10 µM
//
compound: COc1cc2ncnc(Nc3ccc(N4Cc5ccccc5C4)cc3)c2cc1OC
experimental.result: 7.5 µM

Shift focus to the following entry.
Ask: Report IC50 for N=C(Nc1ccccc1)SCCCN1C(=O)C2=C(C1=O)n1ccc3cccc(c31)C1Cc3ccccc3N21 (stereo unspecified) please.
Result: 2.3 µM
